Ref: patent US20230235052A1

MEASURED TARGET: T1, CD19 on CD19-positive target cells SU-DHL-10 and Raji (human, UniProt P15391 20-556)
T1 construct: whole, on cells; also called cell surface antigens
T1 sequence (looked up): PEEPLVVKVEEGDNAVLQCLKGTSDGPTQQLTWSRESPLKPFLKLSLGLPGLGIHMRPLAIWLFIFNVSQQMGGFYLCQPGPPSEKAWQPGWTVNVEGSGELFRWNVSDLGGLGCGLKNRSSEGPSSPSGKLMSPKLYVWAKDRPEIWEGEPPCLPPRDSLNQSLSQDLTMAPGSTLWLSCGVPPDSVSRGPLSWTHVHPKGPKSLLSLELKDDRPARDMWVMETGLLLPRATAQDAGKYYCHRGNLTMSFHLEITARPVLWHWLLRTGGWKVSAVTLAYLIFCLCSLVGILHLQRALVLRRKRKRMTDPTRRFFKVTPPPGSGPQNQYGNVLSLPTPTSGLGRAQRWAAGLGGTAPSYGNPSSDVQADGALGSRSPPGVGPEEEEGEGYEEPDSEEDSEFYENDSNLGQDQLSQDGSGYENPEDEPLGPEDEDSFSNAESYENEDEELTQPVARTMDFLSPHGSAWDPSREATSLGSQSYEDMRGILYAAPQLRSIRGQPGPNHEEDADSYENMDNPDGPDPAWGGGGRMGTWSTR
PROCEDURE TEXT: flow cytometry on CD19-positive Raji cells, antibody titrated, fluorescent anti-Fc secondary antibody, percent positive cells (panel 'scFv binding to Raji')
QUANTITY NAME: EC50 (read off the curve)

Indicate its recorded EC50 (read off the curve); the binder in question is humanized CD19 antibody VH8 + VL5 (antibody, V domains shown) VH: QVKLQESGPGLVKPSETLSLTCTVSGVSLPDYGVSWIRQPPGKGLEWIGVIWGSETTYYNSALKSRVTISKDTSKSQVFLKLSSVTAADTAVYYCAKHYYYGGSYAMDYWGQGTLVTVSS VL: DIQMTQSPSSLSASVGDRVTISCRASQDISKYLNWYQQKPGKAPKLLIYHTSRLHSGVPSRFSGSGSGTDYTFTISSLQPEDIATYFCQQGNTLPYTFGGGTKLEIK
~0.03 µg/mL

Give recorded EC50 (read off the curve). humanized CD19 antibody VH8 + VL6 (antibody, V domains shown) VH: QVKLQESGPGLVKPSETLSLTCTVSGVSLPDYGVSWIRQPPGKGLEWIGVIWGSETTYYNSALKSRVTISKDTSKSQVFLKLSSVTAADTAVYYCAKHYYYGGSYAMDYWGQGTLVTVSS VL: DIQMTQSPSSLSASVGDRVTITCRASQDISKYLNWYQQKPGGAVKLLIYHTSRLHSGVPSRFSGSGSGTDYTFTISSLQPEDIATYFCQQGNTLPYTFGGGTKLEIK
~0.04 µg/mL

State, in one line, measured EC50 (read off the curve) of humanized CD19 antibody VH10 + VL5 (antibody, V domains shown) VH: QVKLQESGPGLVKPSETLSLTCTVSGVSLPDYGVSWIRQPPGKGLEWLGVIWGSETTYYNSALKSRLTISKDTSKSQVFLKLSSVTAADTAVYYCAKHYYYGGSYAMDYWGQGTLVTVSS VL: DIQMTQSPSSLSASVGDRVTISCRASQDISKYLNWYQQKPGKAPKLLIYHTSRLHSGVPSRFSGSGSGTDYTFTISSLQPEDIATYFCQQGNTLPYTFGGGTKLEIK
~0.03 µg/mL

Look up EC50 (read off the curve) of humanized CD19 antibody VH7 + VL6 (antibody, V domains shown) VH: QVKLQESGPGLVKPSETLSLTCTVSGVSLPDYGVSWIRQPPGKGLEWLGVIWGSETTYYNSALKSRLTISKDTSKNQFSLKLSSVTAADTAVYYCAKHYYYGGSYAMDYWGQGTLVTVSS VL: DIQMTQSPSSLSASVGDRVTITCRASQDISKYLNWYQQKPGGAVKLLIYHTSRLHSGVPSRFSGSGSGTDYTFTISSLQPEDIATYFCQQGNTLPYTFGGGTKLEIK and report it.
~0.03 µg/mL
